Test system: immortalized human keratinocytes (DK7-NR)
Assay: Protective effect against cadmium cytotoxicity, Neutral Red incorporation test
Format: cell-based
Details: cadmium chloride alone, 0% extract of maize, 24 hours; read-out: IC50 (concentration of CdCl2 inducing a 50% decrease in viability)
experimental readout: IC50 (µM)
Form entry: value (µM) — number only.

The compound listed as [Cl][Cd][Cl] [cadmium chloride] shows IC50 equal to 37.7
